Source listed as the supplement of paper PMC3842684.

# Test system: P. falciparum NF54-pfs16-GFP late (IV-V) stage gametocytes
# assay.remarks: relative % inhibition of viable gametocyte number; higher = more gametocytocidal
# assay.setup: 5 µM; stage: late (IV-V) gametocyte; incubation 72 h
Listed next: entries and their corresponding relative % inhibition.
Express your answer in %, writing the number without its unit.

Previously resolved entries follow.
Exercise: Value lookup for relative % inhibition; key = COc1ccc(CN2CCN(Cc3ccccc3)CC2)c(O)c1
Key: 7.95

Exercise: Please give the measured relative % inhibition for this compound: CCOc1cc(CNC(C)C(O)c2ccccc2)cc(Cl)c1OCC (stereo unspecified)
Key: 74.4

Exercise: Endpoint output: relative % inhibition of CCCc1cc(O)c2c3c(c(=O)oc2c1)CN(C)CC3 . Value?
Key: 49.1

Exercise: Look up relative % inhibition: Oc1ccc(Br)cc1CN1CCN(Cc2ccc(Cl)cc2)CC1
Key: 31

Exercise: Requested field: relative % inhibition. Item: Oc1ccc(C(=C(Cl)Cl)c2ccc(O)cc2)cc1
Key: -7.57

Please examine the following record next.
Exercise: // relative % inhibition lookup, key: CCOc1c(Cl)cc(CNC(C)C(O)c2ccccc2)cc1OC (stereo unspecified)
Key: 31.3

---

# Tested on: P. falciparum NF54-pfs16-GFP early (I-III) stage gametocytes
# assay.remarks: relative % inhibition of viable gametocyte number; higher = more gametocytocidal
# assay.setup: 0.5 µM; stage: early (I-III) gametocyte; incubation 72 h
reported.property: relative % inhibition (%)
Kindly answer with a numeric value in %, unit omitted.

Observe how each entry below is paired with its result.
Exercise: Query relative % inhibition on P. falciparum NF54-pfs16-GFP early (I-III) stage gametocytes for Oc1ccc(Br)cc1CN1CCN(Cc2cccc(F)c2)CC1
Key: -1.27

Exercise: Can you look up relative % inhibition on P. falciparum NF54-pfs16-GFP early (I-III) stage gametocytes for CCCCCCc1cc(O)c2c3c(c(=O)oc2c1)CCC(C)C3 (configuration not stated) ?
Key: -14.4

Exercise: Tell me reported relative % inhibition for Oc1ccc(Br)cc1CN1CCN(Cc2ccc(Cl)cc2)CC1 , tested with P. falciparum NF54-pfs16-GFP early (I-III) stage gametocytes.
Key: 12.1

Exercise: So what relative % inhibition did O=C(CCc1ccco1)NC1CCN(CC2(c3ccc(Cl)cc3)CCC2)CC1 get with P. falciparum NF54-pfs16-GFP early (I-III) stage gametocytes?
Key: -4.87

Exercise: For the record Oc1ccc(C(=C(Cl)Cl)c2ccc(O)cc2)cc1 , what value of relative % inhibition is listed for P. falciparum NF54-pfs16-GFP early (I-III) stage gametocytes?
Key: -6.22

New cases:
Exercise: Quick check: relative % inhibition on P. falciparum NF54-pfs16-GFP early (I-III) stage gametocytes, item C=CC12CCN(CC1)C(C(O)c1ccnc3ccc(OC)cc13)C2 (configuration not stated) ?
Key: 91.6

Exercise: I'm curious: which relative % inhibition was measured for COc1cc(CNCCc2ccc(Cl)cc2)cc(OC)c1O tested on P. falciparum NF54-pfs16-GFP early (I-III) stage gametocytes?
Key: 9.61

---

# System: P. falciparum NF54-pfs16-GFP early (I-III) stage gametocytes
# assay.remarks: relative % inhibition of viable gametocyte number; higher = more gametocytocidal
# assay.setup: 5 µM; stage: early (I-III) gametocyte; incubation 72 h
# relative % inhibition per entry
Just the number in %, nothing appended.

Exercise: Sample COc1ccc(CN2CCN(Cc3ccccc3)CC2)c(O)c1 — what was its relative % inhibition?
Key: -3.4

Exercise: Which relative % inhibition is reported for this compound? CCOc1cc(CNC(C)C(O)c2ccccc2)cc(Cl)c1OCC (stereo not drawn)
Key: -1.9

Exercise: Looking for the measured relative % inhibition of CN(N=O)C1=C(NC2CCCCC2)C(=O)c2ccccc2C1=O , can you help?
Key: 10.4

Exercise: Tell me the measured relative % inhibition of CCOc1c(Cl)cc(CNC(C)C(O)c2ccccc2)cc1OC (stereo not drawn) , please.
Key: 71.9

Exercise: Entry under review: Oc1ccc(Br)cc1CN1CCN(Cc2cccc(F)c2)CC1 . Reported relative % inhibition?
Key: 63.9

---
Exercise: // returns reported relative % inhibition for input O=C(CCc1ccco1)NC1CCN(CC2(c3ccc(Cl)cc3)CCC2)CC1
Key: 91.7

Exercise: Sample Oc1ccc(Br)cc1CN1CCN(Cc2ccc(Cl)cc2)CC1 — what was its relative % inhibition?
Key: 88.4

Exercise: Requested field: relative % inhibition. Item: COc1cc(CNCCc2ccc(Cl)cc2)cc(OC)c1O
Key: 87.4
